# experiment-summary: protein stability index of a GFP-peptide fusion (GPS, HEK-293T) (PSI 1-6); higher = more stable;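 note: 24-mer peptide tiles fused after GFP, lentivirally expressed, FACS-sorted into six equal bins by GFP/DsRed ratio, decoded by Illumina sequencing, PSI is the read-weighted mean bin number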
# condition: treatment: DMSO; c terminus: a fixed tail appended
Measured protein stability index, listed per entry.
value-kind: protein stability index

sequence-string: LLPNPYQQDFLGLPEELRRLSGLS [C22orf15]
endpoint-result: 2.91
--
sequence-string: VRRECWFLPTALLCAYGFFASLRP [SLC19A2]
endpoint-result: 2.95
--
sequence-string: LSRYLIEPCGPGKSKLTYMCRVDL [DLC1]
endpoint-result: 2.99
--
sequence-string: KKLKIFAMPMQDIKMILKMVQLDS [PRAME]
endpoint-result: 2.93

* * *

# experiment-summary: protein stability index of a GFP-peptide fusion (GPS, HEK-293T) (PSI 1-6); higher = more stable
# condition: treatment: DMSO; c terminus: a fixed tail appended
Measured protein stability index, listed per entry.
value-kind: protein stability index

sequence-string: ALGCVMYTMLLGRPPFETTNLKET [PLK2]
value-kind: protein stability index
endpoint-result: 2.72
//
sequence-string: HGHLILHSMHKYQPRIHLVRAAQL [TBX6]
value-kind: protein stability index
endpoint-result: 2.1
//
sequence-string: LDTVELATYCVRTFALYKNGSSEK [PTPRD]
value-kind: protein stability index
endpoint-result: 2.37
//
sequence-string: TFSLKTVLMIAIQLISRMEYVHSK [CSNK1G3]
value-kind: protein stability index
endpoint-result: 3.5
//
sequence-string: EQHISKCKKAFREGSRKSSRVKGS [KMT2E]
value-kind: protein stability index
endpoint-result: 4.59
//
sequence-string: KTAHDSNVLHVARLPNRQLISCSE [WDR41]
value-kind: protein stability index
endpoint-result: 3.6
//
sequence-string: IKKPESFSKQIVLRGKSIKRAPGE [NEUROD6]
value-kind: protein stability index
endpoint-result: 3.9
//
sequence-string: RRGRSPKGEFKDEEETVTTKHIHI [CLINT1]
value-kind: protein stability index
endpoint-result: 4.78
//
sequence-string: AEPLKEDKPVTGPRNKTENGLTPK [ATF6]
value-kind: protein stability index
endpoint-result: 5.5
//
sequence-string: PALKECIQGADTIRCVYILDPWFA [CRY1]
value-kind: protein stability index
endpoint-result: 2.95
//
sequence-string: KVVHAVDGTAENGIHPLSSSEVDE [PALM]
value-kind: protein stability index
endpoint-result: 5.25
//
sequence-string: RVHAGSKAALAALCPGDLIQAING [PDLIM4]
value-kind: protein stability index
endpoint-result: 2.95
//
sequence-string: EYDVYSTFQSHEPEFDYLKSLEIE [PPP2R2C]
value-kind: protein stability index
endpoint-result: 4.33
//
sequence-string: AEMLGSVVGNWQYFFPVIFSKASS [MAGEA3]
value-kind: protein stability index
endpoint-result: 2.17
//
sequence-string: GAVYADSGNFERCIRLWKYALDMQ [FEM1A]
value-kind: protein stability index
endpoint-result: 2.38
//
sequence-string: KRFTDAGFEHYDLFFIDGSTPSDN [CDC14A]
value-kind: protein stability index
endpoint-result: 3.45
//
sequence-string: WFHAKSAELNKEVSTNTAMIQTSK [KRT13]
value-kind: protein stability index
endpoint-result: 4.09
//
sequence-string: PPAEEAEQPGALAREFLAAMEPEP [FKBP8]
value-kind: protein stability index
endpoint-result: 5.49
//
sequence-string: EEERRRREEEERERLQKEEEKRRR [ACBD3]
value-kind: protein stability index
endpoint-result: 5.59
//
sequence-string: LDLLLDMPPVSYDVQLLHSWNNND [SPSB1]
value-kind: protein stability index
endpoint-result: 2.66
//
sequence-string: RSTCNVVQDEFLDTPCTNRGLPLL [DLC1]
value-kind: protein stability index
endpoint-result: 3.21
//
sequence-string: DSHILLCLMGLAETPGCATLLPAS [DCAF4]
value-kind: protein stability index
endpoint-result: 2.67
//
sequence-string: SLGVDTLPPPDPNPPRAEFNYSVG [APBB1IP]
value-kind: protein stability index
endpoint-result: 4.1
//
sequence-string: GKKDVSHSSPVDLKIPQVRGMDLS [LCOR]
value-kind: protein stability index
endpoint-result: 4.32
//
sequence-string: TLHAVEKLQVRLATKTEPKKLEKY [ELOA2]
value-kind: protein stability index
endpoint-result: 3.7
//
sequence-string: CAGPGFTHNIAHGSLGFEPVYVSC [SPAG8]
value-kind: protein stability index
endpoint-result: 2.48
//
sequence-string: ITAFYNEARARARANRGILQQERQ [DNAJC4]
value-kind: protein stability index
endpoint-result: 3.4
//
sequence-string: PLAEQTPLTLQSQPKEPQLTCDSA [ZSCAN9]
value-kind: protein stability index
endpoint-result: 5.25
//
sequence-string: AKNQSDEAKEAKGSGYEKLGPSRD [RTP4]
value-kind: protein stability index
endpoint-result: 5.47
//
sequence-string: PWLWSEQQVCQWLLWATNEFSLVN [ETS2]
value-kind: protein stability index
endpoint-result: 2.76
//
sequence-string: EICSEPVAASPAPAGERRIYRHRI [ZNF511]
value-kind: protein stability index
endpoint-result: 4.27
//
sequence-string: DHPGTPPHKTFRKLRLFDTPHTPK [WEE1]
value-kind: protein stability index
endpoint-result: 3.88
//
sequence-string: RLEKAVAAAYTFLQRNPKHELTAK [P3H4]
value-kind: protein stability index
endpoint-result: 2.32
//
sequence-string: VAWHPVRPIIASISSGVVSIWAQN [RBBP5]
value-kind: protein stability index
endpoint-result: 2.48
//
sequence-string: RQLAYSTVGTPDYIAPEVFMQTGY [STK38L]
value-kind: protein stability index
endpoint-result: 3.06
//
sequence-string: KCKQVKEKCKEEFVEEIKKLATQH [ZMYND11]
value-kind: protein stability index
endpoint-result: 4.12
//
sequence-string: EPASESVVGALPAEHQFSFMEKRN [TRAF3IP2]
value-kind: protein stability index
endpoint-result: 4.71
//
sequence-string: EQRANDLEQIMESVKSKIGELEDE [CEP70]
value-kind: protein stability index
endpoint-result: 5.41
//
sequence-string: RCLVRCLLRREPAERLTATGILLH [TRIB3]
value-kind: protein stability index
endpoint-result: 2.38
//
sequence-string: QASCDEAHKMKFSDLFSLAEEYED [INTS3]
value-kind: protein stability index
endpoint-result: 4.61
//
sequence-string: DRGTRVVFIDFSVYNANINLFCVL [PKD2L1]
value-kind: protein stability index
endpoint-result: 3.11
//
sequence-string: LSSPEFSELCIWLGSQIKSLCNLE [FAM98B]
value-kind: protein stability index
endpoint-result: 2.17
//
sequence-string: LTLVLVASVLLQAVLYPRFMGTIS [CD207]
value-kind: protein stability index
endpoint-result: 2.99
//
sequence-string: KSIDDTSNFDDFPESDILQPVPNT [STK38L]
value-kind: protein stability index
endpoint-result: 5.25
//
sequence-string: IFMGYQNVEDEAETKKVLGLQDTI [PALM]
value-kind: protein stability index
endpoint-result: 3.27
//
sequence-string: AMAERNRRDAEEWFHAKSAELNKE [KRT13]
value-kind: protein stability index
endpoint-result: 5.03
//
sequence-string: SYPRTPHTPGTPKSAILVPSEKKV [MAP2]
value-kind: protein stability index
endpoint-result: 4.6
//
sequence-string: WVCQRSTVASMMHRQETVECLKKF [CAMK2B]
value-kind: protein stability index
endpoint-result: 2.73
//
sequence-string: KTLKAENAGLSSTAGLLREQVAQL [JUNB]
value-kind: protein stability index
endpoint-result: 3.72
